Assay: soluble on expression in E. coli; label from the status in PepcDB or PDB records
EXPERIMENTAL ENDPOINT: soluble on expression in E. coli

sequence_record=MSLDNSRTRPRVGHIQFLNCLPLYWGLARTGTLLDFELTKDTPEKLSEQLVRGDLDIGPVTLVEFLKNADDLVAFPDIAVGCDGPVMSCVIVSQVPLDRLDGARVALGSTSRTSVRLAQLLLSERFGVQPDYYTCPPDLSLMMQEADAAVLIGDAALRANMIDGPRYGLDVHDLGALWKEWTGLPFVFAVWAARRDYAEREPVITRKVHEAFLASRNLSLEEVEKVAEQAARWEAFDEDTLAKYFTTLDFRFGAPQLEAVTEFARRVGPTTGFPADVKVELLKPEGHHHHHH observed_result=soluble
sequence_record=MGSDKIHHHHHHDKNSAPGFSFTTDSILTLTFDKELDAAFVGVGTQNYNPVGMRRSGDTLFIANRAEGSDGVWVVRASTGELLYSLTGWTYNGKNEKFDNQVMDVAVSSDYIFVVNRSSRIDLFRRNDYSYVTTIGRTGWQSSSLLQCEAAEVAGDKLFIRDKQKIKVVQISDCTPENRFKVPVFAQNTDSTSSNNGFNLESVARHEGLIYVSDYETSRILVIDPATVAVKGEPVRFLRSYRMPNKPLSMGFFQNEMYVVCANNCIVRVDLRTGKELGSYSSFAGGVGLGTPGRLLFHNDTFYLAGRNANAPRLIQGKVMFVEISELD observed_result="not soluble"
sequence_record=MAQISGNQTGIGSIHPLLHQNTSDFSEQKFSSVFTGDEFFLRDHVVRGKPVLPGVAYLEMAYAAINQAAGSEIGQDVRIRLNHTVWVQPVVVDRHSAQVDISLFPEEDGKITFDIYSTQEDGDDPVIHSQGSAELASAAETPVADLTEMSRRCGKGKMSPDQFYEEGRSRGMFHGPAFQGIKNVNIGNREVLAQLQLPEIVSGTNEQFVLHPSIMDSALQTATICIMQELTDQKLILPFALEELEVIKGCSSSMWAYARLSDSDHSGGVVQKADIDVIDESGTVCVRIKGFSTRVLEHHHHHH observed_result=soluble
sequence_record=MGSDKIHHHHHHMRLDTLSKTGGGVQEALSGSVRLYSEVLNREVEVPETPRRIVSLSPAITETLYMLGLEDRIAGVSVYDHKPPKAREKPKVGSYYKVNMKLLEQLNPDLILVTTGAQRRILEDLSRRYPVYPIPLPVSVSGIIDQAVQVGIVTGALEEASRLETELLDKASKLRGAGRGLRIYYEVYLGGPVTAGAHTYISDAFRIAGVETPFMSERTTWIYQPPPERINRFKPQFILYEYSAYAPTTAEKVRGELEARGVDVGSAELVLLEPDTLAHYGPSFIDTMLDLLKTLRDKAGLG observed_result="not soluble"
sequence_record=MSLTESARATVSLGFTAELFPPGTHMCYIYNDERERLEIMSEFVRSGIESGEKIAYFVEEMSPQALRDYLAGLGIVPTEEAQLEIAPSVDVYCPEGRFSPDRMLGRLRSAYEDGIREGFNGVRLTGEMHWALRGLPGSERLAEYESRINLLVVDCPLTVICQYDANHFDGATLFKILNAHPMMIVRGQVVHNPYYLSPEEYFARYPVPNVEGHHHHHH observed_result=soluble

Please look at the following sequence next.
Which soluble on expression in E. coli is listed for `MAHHHHHHMHDIGGAELVVAVHQPAAASHGQPFCHEHGKAKTESAGHNLQHAAAIHRNVPKHTRALVVFVARRTPQAVLYGEHGAAADTEVRRKSVHHVRLRPDNAVVHVEHTGQVRTEAALHEDSRARFPATQQRRARHDKPRRQKPDAVQNKRGAVPESRTARGRQHVLRPANRRAQR` ?
soluble

----------
Assay: soluble on expression in E. coli; label from the status in PepcDB or PDB records
EXPERIMENTAL ENDPOINT: soluble on expression in E. coli

sequence_record=MVLLVMKSSTTIITAYFDIGRGDWTANKGFREKLARSVDVYFSYFERLAALENEMIIFTSPDLKPRVEAIRNGKPTTVIVIDIKKKFRYIRSRIEKIQKDESFTNRLEPRQLKNPEYWSPEYVLVCNLKAYFVNKAINMGLVKTPLVAWIDFGYCRKPNVTRGLKIWDFPFDESKMHLFTIKKGLTVTSQQQVFDFMIGNHVYIIGGAIVGSQHKWKEFYKLVLESQKITLNNNIVDDDQGIFVMCYYKRPDLFNLNYLGRGKWFDLFRCFRSNTLGAKMQALRIFLSRK observed_result="not soluble"
sequence_record=KTKVGNQSPDVRFGLQNTFKIKDFTVNIDMDGAIGGTLISTTTQKMWWGGKHPKSTMYRQEEYDNGGKPVYVPEGVNIVSGEVTYDVNGNIVSDTRVYKKNETAVNIQTWAQNYPYRAVVRTEESELFANTFSRSFLKLRRVAVTYDLTKFIQSQFIKGLDVTVFGNNLAVLKKTPYLDPDFGASDGDLQDPSARYVGVSANIKF observed_result="not soluble"

----------
Experiment: soluble on expression in E. coli; label from the status in PepcDB or PDB records
EXPERIMENTAL ENDPOINT: soluble on expression in E. coli

sequence_record=MDSLKCQVDNTVASHNVTIDKSSQDDNHIDNRRYYINIGNTKDSEEVARLQKLILTQNEAESKRTMELLALLNLKNNPEEQKKASAVGPAVDVAQNLRHLSASAGGTRRLRSCHGTYLRAYDKGLKVDMKTGAPGTWENWWVEDRKGKVVFKAIHSPGIFLSAQGNNQLTLDYHVNASEFWTPKKNDNGSWSFQSANGTWLSAHKDGRACLQPHRQAWEEFWLEWW observed_result="not soluble"
sequence_record=MIKLAPAALKADLQVRQERVRIAMEEEGYDALLVTSNVNLLYLFGSIYGGAAYLPAEGEPIFFVRRPQVIEEGNVCPIRKLEDIPALIQSRGGVLPRRIMLENDESSYSDIKRQHSIFPNAEYGNATALLRRLRMIKTPGEIELFRRTAAIHGEVYACIPSVFRPGMTDREFQVEIEHLMRNYGSEGIFRTFGSAMEIHMGNVIVGDNAESPSPYDFAMGGGGTDALPLGADGSPMKEGMCVMVDMAGNYSAYISDMTRSYAIGKVPDEARRLHDLSREIQAKVMETAEPGMSCADLYKRSVEMAEEAGAADKFMGTKQQAKFVGHGIGLQINEMPVLMARSKEILTPGMVIAFEPKFVLPGIGAVGNENSFLVTESGVEKLTVCSEELIDLLAVAKQ observed_result="not soluble"
sequence_record=MGSDKIHHHHHHMISTEYRPKSLLEEFVVCFYFNKSDNFEYADYANPTTNQEMFFNLGDDFELKNSIGQVTSQRSWISGLQSKSLPIKCSGRHITAGVIFKPWGLYAAFGINAKELANKTIYSKWLCDLSNELDNSEFSESQFFDLMEFNLLKSIKRSKMTKVMQKIVNEIEQENVFTLSEKLNRSKKTIIESFNKMIGLSPHKFYTLKCICETITLLQNNPTIKLTELAYNQGFYDQAHFIRVFKEHTGLTPKEFRNSIMKR observed_result="not soluble"

----------
Assay: soluble on expression in E. coli; label from the status in PepcDB or PDB records
EXPERIMENTAL ENDPOINT: soluble on expression in E. coli

sequence_record=MVSLRTSNRGIVMIDAVVTWVDGADPAHHAKRLRHQGEAGVHQAATAPTRFAHSGEIRFCVLSLLRFCPFVERIHIVTDDQHPAVLDPILDDPHWRDRIAVVDHRAIYGEHADLLPVFSSRSIETMIHRIPGLAPRFIYLNDDIFVGRPLDESHFFDGDRAVLRGRMQPFPNPLVTRLKRWLKRERPGYKTAQQAAARLTGRTSDYFLTEHQPHPMHRDRLASFYAGDPQALRRQAGHRFRSADQVSPIGLANHLEIEARAVIAPPLDVGYIRPGRPTGTALARTMERLCANGYASFCVQSLDAMSEADRRCVLEGLERHYALEHHHHHH observed_result=soluble
sequence_record=SANDKQYISYNNVHQLCQVSAERIKNFKPDLIIAIGGGGFIPARILRTFLKEPGVPTIRIFAIILSLYEDLNSVGSEVEEVGVKVSRTQWIDYEQCKLDLVGKNVLIVDEVDDTRTTLHYALSELEKDAAEQAKAKGIDTEKSPEMKTNFGIFVLHDKQKPKKADLPAEMLNDKNRYFAAKTVPDKWYAYPWESTDIVFHTRMAIEQGNDIFIPEQEHKQ observed_result=soluble

----------
Assay: soluble on expression in E. coli; label from the status in PepcDB or PDB records
EXPERIMENTAL ENDPOINT: soluble on expression in E. coli

Here's what some known entries look like.
sequence_record=MGSDKIHHHHHHMRWFHKKGELARDGWQSVVDATTPGWEYTGIRIAELGSGESLELNDTGVERIFIPLQGSFDVAHHGQVTHLHGRKSVFDGPTDVLYLPTGQTATLSGQGRVAVAEAPTQEPKEWKYIAPAETPVELRGAGRSSRQVHNFGTPEALDAARLIVCEVITPGENWSSYPPHKHDEHIPGHESKLEEIYYFESAPSRVGGRAEAAEGAFGMFSTYSSPAGEIDINAMVYSGDIALVPFGYHGPAVAAPGYDLYYLNVMAGPDPERIWLINDDPAHAWVRDTWTGQAFDDRLPYENANKEG observed_result="not soluble"
sequence_record=MSLDLSASRSDGGDPLRPASPRLRSPVSDGGDPLRPASPRLRSPVSDGGDPLRPASPRLRSPLGASRPVVGLTAYLEQVRTGVWDIPAGYLPADYFEGITMAGGVAVLLPPQPVDPESVGCVLDSLHALVITGGYDLDPAAYGQEPHPATDHPRPGRDAWEFALLRGALQRGMPVLGICRGTQVLNVALGGTLHQHLPDILGHSGHRAGNGVFTRLPVHTASGTRLAELIGESADVPCYHHQAIDQVGEGLVVSAVDVDGVIEALELPGDTFVLAVQWHPEKSLDDLRLFKALVDAASGYAGRQSQAEPREGGSHHHHHH observed_result=soluble
sequence_record=MSLIRFRFVDDHRTDYSVKRMCTVLGLNRSSYYKWKASSAQRHRRLVDDAILGAKVQAIFDDKKQLYGAKRIAAELTFNDAYSSTGPVNHKRIARIMRKLQLRGYTKKRKVTTTQRERHRFIFADLVKRNFTAPAANRILVGDITYLPIADGSNMYLASVIDCYSRMLVGFAIADHMRTDLVEEALEHARRTRGSLSGAIFHSDHGSVYTSSQFQAVCRRLNVTQSMGAVGSSADNSLAESFNAALKREVLKDQKVFSNQLVCRRDVFAWCARYNTTRRHSWCKYLTPIEYESHASEGHHHHHH observed_result="not soluble"
sequence_record=MDLSAVRFDEKGLVPVVVQDARTGEVLTLAYANREALEETLRTRRSTFFSRSRQALWRKGETSGHTQEVVEVLLDCDGDAVVYRVLPQGPACHTGERTCFHRALLEGEKDLGFVVGQVYATIKERLRTLPEGSYVARMHQAGLDRILKKIGEEAGEVILAAKNQNPEELRHEAADLLFHLLLTLAELGLTPEDLAKTLWERHRPRSPYDGSHGN observed_result=soluble
sequence_record=MKFNCPLIVVNDINISRKFYEEVLCQKIKYDFGENVVYEGDFSLQLKSHFANMIDIDEKSIKFQSNGFELYFEEDNIEAFLNKLKQNKGINYIHSLLEHPWGQRVIRFYDPDMHIIEVGESMEGVIKRFFNEGMSIDEITKRTQHPLEFVKRVLHYKLTLEHHHHHH observed_result=soluble
sequence_record=MAHHHHHHMSSHQILITAPEVYSKRFAQALEARSLIPMAVPVIETIATPDTADMRALLEQDLNGIDYIAFCSRCAVDSLSAALDHRYGGGGESVSERAGSAPAVNEDRRATAVVKVLAKCALAAIGKDADYVFERLRIRTTICPDEPSPAGIAAKLAESGRAEGRTIAVLAPCVEGFTEPDVVPRFVDQLKGMGMKVVRVDAYMTRPVSEEAVSAAVTALKNGSVRGVAFTSAGEIAVLLRRSPQCLMNIDVACFGPYTAGFAAKHGVKVSCVAKDFRSFDGFAATIEQHYASR observed_result=soluble
sequence_record=MGSDKIHHHHHHVTSQAPVEVMTDIMTKFTSYIGKRLPTDIKEKLADLREAETNPMANVLFDSMAENQEAADKLNRPSCQDTGVIQYFITAGAKFPLLGELEEILRNATLGATKLGPLRHNAVEAFDEKNTGTNTGSRIPWLDWEIVPNDDGVIIDVYMAGGGCTLPGASTVLMPGQGYEGVVDFVFDVVTSRGINACPPLLIGVGVSTSAETAARLSKKAILRPVGSHHDNANAAKMETLLEDGLNELGIGPQGLTGNSSVMGVNIESSARHPSTIGVAVSTGCWAHRRGRIRFNADLSYEIVSHEGVVL observed_result="not soluble"
sequence_record=MMQRRAVFGLFLLPLARGQGTCAPTPALTQGPYYLRDVPQREDLREGLPGVPLRLLLRVRDRACRPLQGARVDLWHTDALGRYSGVNAPGTFCRGWQATDERGEVAFLTLFPGWYPSRTPHLHLRVEAGGRVFATQLFFPEEVQRQVYALPPYRERGMPRVNNRQDGLFRADLLLRLEREGEAYRGAFVLTLPG observed_result=soluble
sequence_record=MRITIAGKIGSGKSTVSSELSRITGYTVYSSGTFFRETARKMNMSIEDFNVYSESHPEADYYTDETQKAFMQANDNIIVEGRLAGWISYLNGINAFRIFLYATYYTRLVRFAGRENIDIDSARDLMEKREKSEKERYRKLYGIDVDDLSIYDIVVNTEFMKPPEIAVYIANRIDEMSRKDIFTPRILR observed_result="not soluble"
sequence_record=MGSDKIHHHHHHMKLLMIELHQEDCSNIAVSEKIKDAELNLVNVREDGDYTHIDAIFLGDMFKENVISTLRKEKAFNINLKMKSRSEIWVSYDILTTAAWRNFSSLGCTVVPPLRVANGVEKWFVYTPDEISQRDIKRQLEMDNATHISRIRELTLKSFLKVIFNMDFLSDFIDTMEALTDLQVKTIKQAYVNGYYDYPRRCTLGDLAKINGISKNAMAKRLKSVEKKIFECLFGYI observed_result="not soluble"

Which soluble on expression in E. coli is listed for `MGHHHHHHSHMIKQRTLKRIVQATGVGLHTGKKVTLTLRPAPANTGVIYRRTDLNPPVDFPADAKSVRDTMLCTCLVNEHDVRISTVEHLNAALAGLGIDNIVIEVNAPEIPIMDGSAAPFVYLLLDAGIDELNCAKKFVRIKETVRVEDGDKWAEFKPYNGFSLDFTIDFNHPAIDSSNQRYAMNFSADAFMRQISRARTFGFMRDIEYLQSRGLCLGGSFDCAIVVDDYRVLNEDGLRFEDEFVRHKMLDAIGDLFMCGHNIIGAFTAYKSGHALNNKLLQAVLAKQEAWEYVTFQDDAELPLAFKAPSAVLA` ?
not soluble

These measurements were taken from the DeepSol protein solubility set.
